The following molecules are shown together with reported IC50 values.
# assayed-system: Rac GTPase-activating protein 1 (Homo sapiens, UniProt Q9H0H5)
# Sequence (Q9H0H5 whole entry): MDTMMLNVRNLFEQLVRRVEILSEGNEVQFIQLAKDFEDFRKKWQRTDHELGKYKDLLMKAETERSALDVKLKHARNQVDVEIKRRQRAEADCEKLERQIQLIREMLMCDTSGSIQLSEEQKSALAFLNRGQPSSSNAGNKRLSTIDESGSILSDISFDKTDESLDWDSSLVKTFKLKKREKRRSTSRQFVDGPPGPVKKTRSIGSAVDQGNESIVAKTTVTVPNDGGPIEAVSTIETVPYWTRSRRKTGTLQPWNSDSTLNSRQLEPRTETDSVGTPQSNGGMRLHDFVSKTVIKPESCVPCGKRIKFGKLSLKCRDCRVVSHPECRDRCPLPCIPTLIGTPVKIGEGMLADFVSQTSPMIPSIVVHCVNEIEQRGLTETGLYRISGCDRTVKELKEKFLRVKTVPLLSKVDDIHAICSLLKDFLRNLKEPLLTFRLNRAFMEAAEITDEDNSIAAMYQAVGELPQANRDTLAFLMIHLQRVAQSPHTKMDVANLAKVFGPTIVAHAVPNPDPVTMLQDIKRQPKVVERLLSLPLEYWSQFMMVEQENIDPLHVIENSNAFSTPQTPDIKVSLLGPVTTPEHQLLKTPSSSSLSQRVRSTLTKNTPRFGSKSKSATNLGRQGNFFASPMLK
# experiment-description: MgcRacGAP GTPase-activating activity inhibitors, confirmation, biochemical, ADP Hunter fluorescence, primary and confirmatory (AID 624330)
# Format: functional
Active and inactive are the calls of the source.

> print(dat)
                                   molecule                            assayed.system  assay.endpoint   recorded.result
1                N#Cc1c(O)nsc1Nc1ccc(Cl)cc1  Rac GTPase-activating protein 1 (Homo sapiens, UniProt Q9H0H5)            IC50  79.9 µM (active)
2  O=[N+]([O-])c1cccc(CN2CCN(c3cccc4[nH]ccc34)CC2)c1  Rac GTPase-activating protein 1 (Homo sapiens, UniProt Q9H0H5)            IC50  45.4 µM (active)
3  N#CC1(Nc2ccc(-c3ccc(NC4(C#N)CCCC4)cc3)cc2)CCCC1  Rac GTPase-activating protein 1 (Homo sapiens, UniProt Q9H0H5)            IC50  10.3 µM (active)
4     C/C=C/c1ccc(OCCCCN2CCN(CC)CC2)c(OC)c1  Rac GTPase-activating protein 1 (Homo sapiens, UniProt Q9H0H5)            IC50    82 µM (active)
5    COc1ccc(/C=N/NC(=O)CN2CCCCCCC2)c(C)c1C  Rac GTPase-activating protein 1 (Homo sapiens, UniProt Q9H0H5)            IC50   139 µM (active)
6  CC(C(=O)N(C)Cc1ccccc1)N1CCN(C/C=C/c2ccccc2)CC1 (stereo unspecified)  Rac GTPase-activating protein 1 (Homo sapiens, UniProt Q9H0H5)            IC50  80.2 µM (active)
7            Cc1nonc1C(=O)N/N=C/c1ccc(O)cc1  Rac GTPase-activating protein 1 (Homo sapiens, UniProt Q9H0H5)            IC50  95.6 µM (active)
8  NS(=O)(=O)c1ccc(Nc2nc(-c3ccc(O)cc3)cs2)cc1  Rac GTPase-activating protein 1 (Homo sapiens, UniProt Q9H0H5)            IC50  19.9 µM (active)

Asked: // Input: "COc1ccc2c(c1)-c1nc(/N=C/c3c(O)ccc4ccccc34)sc1CC2" . Output its IC50 only.
Given back: 22.2 µM (active)

Asked: // Input: "C/C(=C\C(=O)c1cccnc1)Nc1ccc(O)cc1" . Output its IC50 only.
Given back: 14.7 µM (active)

Asked: // Input: "Cc1nn(-c2ccccc2)c(O)c1/C=N/N(C)c1ccccc1" . Output its IC50 only.
Given back: 19.3 µM (active)

* * *

# experiment-description: Luminescence Cell-Based Dose Retest to Confirm Inhibitors of Cancer Stem Cells. [Related pubchem assays (depositor defined):AID2717, AID2721]
# Format: functional
# study-conditions: Homo sapiens
Active and inactive are the calls of the source.
assay-endpoint: AC50

> print(dat)
                                   compound  assay.endpoint    recorded.result
1  CCCC/C(C)=C/[C@@H](NP(=O)(c1ccccc1)c1ccccc1)c1ccccc1            AC50    6.1 µM (active)
2  CN(c1ccccc1)c1ccc(/C=C(\C#N)c2nnc3n2CCCCC3)cc1[N+](=O)[O-]            AC50  0.597 µM (active)
3  N#Cc1ccc(Nc2nc(-c3ccc(O)cc3O)cs2)cc1C(F)(F)F            AC50   4.98 µM (active)
4  COC(=O)Nc1ccc(S(=O)(=O)N2CCCc3ccccc32)cc1            AC50  0.362 µM (active)

Proceeding to the next compound to report its AC50.
Asked: // Input: O=C(NC(NC(=S)Nc1ccccc1)C(Cl)(Cl)Cl)c1cccc(Cl)c1 (stereo not given) . Output its AC50 only.
Given back: 4.73 µM (active)

Values compiled from ChEMBL document CHEMBL1201862.
